Collected fluorescence slope values appear next to each entry.
System Name: Voltage-gated potassium channel subunit beta-2 (Rattus norvegicus) (UniProt P62483)
Sequence (P62483 whole entry, looked up): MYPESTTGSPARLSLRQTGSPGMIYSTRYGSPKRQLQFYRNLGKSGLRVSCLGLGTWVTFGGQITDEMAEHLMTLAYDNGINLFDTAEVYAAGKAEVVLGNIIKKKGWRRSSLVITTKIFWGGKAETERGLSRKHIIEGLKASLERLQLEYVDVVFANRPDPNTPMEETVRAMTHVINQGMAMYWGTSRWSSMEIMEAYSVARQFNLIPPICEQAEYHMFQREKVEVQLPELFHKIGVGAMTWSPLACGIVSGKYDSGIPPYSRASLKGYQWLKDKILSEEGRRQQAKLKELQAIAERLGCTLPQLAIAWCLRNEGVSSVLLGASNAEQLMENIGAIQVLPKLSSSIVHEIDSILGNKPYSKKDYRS
Procedure Summary: KvBeta enzyme negative modulators, primary screen, biochemical, NADPH fluorescence (AID 622);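 note: slope of raw intensity against log time taken from 70 to 1610 s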
Condition Details: recombinant KvBeta, 4-cyanobenzaldehyde reduction, at 10 µM, stronger effect = higher value
Give only the figure.

**Query** Dear colleague, please send me the reported fluorescence slope for Cc1ccc(-c2ccc(SCC(=O)Nc3nonc3C)nn2)cc1 when you can.
**Result** -0.283

**Query** Dear colleague, please send me the reported fluorescence slope for CCCN(CCC)S(=O)(=O)c1ccc(NS(C)(=O)=O)cc1 when you can.
**Result** -0.391

**Query** Dear colleague, please send me the reported fluorescence slope for O=C(C1CCCCC1)N1CCCn2c1nc1ccccc12 when you can.
**Result** -0.481

**Query** Dear colleague, please send me the reported fluorescence slope for Cc1ccc(N2CC(C(=O)Nc3ccc(N(C)C)cc3)CC2=O)cc1C (stereo unspecified) when you can.
**Result** -0.411

**Query** Dear colleague, please send me the reported fluorescence slope for COC(=O)c1[nH]c(C)c(/C(O)=C2\C(=O)C(=O)N(CCN3CCOCC3)C2c2ccccc2OC)c1C (stereo unspecified) when you can.
**Result** -0.491

**Query** Dear colleague, please send me the reported fluorescence slope for Cc1cccc(OCC(=O)N(Cc2cccs2)C2CCS(=O)(=O)C2)c1C (stereo unspecified) when you can.
**Result** -0.639

---

Procedure Summary: inhibitors of Sendai virus-induced IRF3 signaling, primary screen, TLR/RLR signaling modifier project, cell-based, Sendai virus stimulus, luciferase, 10K MLSCN set (AID 602276);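 note: firefly luciferase from ISG56 promoter only with Renilla not read in this screen; 0% = Sendai virus plus DMSO and 100% = medium plus DMSO without virus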
Condition Details: HEK293 RL24 IRF3 luciferase reporter, at 10 µM, stronger effect = higher value
Observation Type: inhibition (%)
# unit: % | format: bare number

Sample records with inhibition:
> print(dat)
                                    compound  test.result
 1              COC(=O)c1ccc2c(c1)nc(C)n2CCO         5.24
 2  Clc1ccc2c(c1)[C@H]1OCC[C@H]1[C@@H](c1ccco1)N2        -42.9
 3  O=C(NCCCN1CCOCC1)c1ccc(CS(=O)(=O)c2c(Cl)cccc2Cl)o1        -8.21
 4  Cc1c(C(=O)Nc2ccncc2)oc2c1C(=O)CC(C)(C)C2         7.94
 5  COc1ccc(C(=O)CSc2nnc(C3CCCCC3)n2N)c(OC)c1         10.3
 6                Cc1nc(CCNC(=O)c2ccccc2)cs1         9.26
 7  CCOC(=O)N1CCC(n2c(=S)[nH]c3cc(OC)c(OC)cc3c2=O)CC1         14.4
 8         Cc1ccc(CSC2=NCCN2C(=O)c2ccco2)cc1      -0.0387
 9         COc1cc(NC(=O)Cc2ccccc2OC)cc(OC)c1          -19
10               CCN(CC)c1nc2nonc2nc1N(CC)CC         14.3

**Query** Dear colleague, please send me the reported inhibition for O=C(O)c1ccccc1S(=O)(=O)NCC(O)COc1ccc(Br)cc1 (centres undefined) when you can.
**Result** 10.6

**Query** Dear colleague, please send me the reported inhibition for C=CCOC(=O)C1=C(C)OC(N)=C(C#N)C1c1ccc2c(c1)OCO2 (centres undefined) when you can.
**Result** -2.6

**Query** Dear colleague, please send me the reported inhibition for CCOC(=O)C1=C(C)Nc2nnnn2C1c1c[nH]c2ccccc12 (centres undefined) when you can.
**Result** 7.12
